# study_target: hu-M-IL1RAP-D1 construct, positions S21-Q133 (human)
# Sequence (chain, as listed by the source limits assumed): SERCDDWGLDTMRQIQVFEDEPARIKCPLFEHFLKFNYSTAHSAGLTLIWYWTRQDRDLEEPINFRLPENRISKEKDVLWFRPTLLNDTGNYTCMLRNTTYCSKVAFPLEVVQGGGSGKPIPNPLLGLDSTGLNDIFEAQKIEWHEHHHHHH
# method: ELISA, mAb at 10 nM
assay_metric: A450 (A450)
Write the answer as a number in A450, unit excluded.

{"columns": ["binder", "reported_value"],
 "data": [
  ["8H1 (purified mAb from hybridoma 8H1) (antibody, V domains shown) VH: QVQLQQSGPELVKSGASVRISCKASGYAFSGSWMNWVKQRPGKGLEWIGRIYPGDGNTNYNGKFKDKATLTADKSSSTAFMQLSSLTSEDSAVYFCARDYYLFYFDYWGQGTTLTVSS VL: NIVMTQTPKFLPVAAEDRVIITCKASQDVSNEVAWYQQKPGQSPKLLMYYASNRYTGVPDRFTGSGSGTDFTFTISSVQVEDLAVYFCQQHYSSPLTFGAGTKLELK", 0.045]
]}

Please report the recorded A450 for 13D8 (purified mAb from hybridoma 13D8) (antibody, V domains shown) VH: EVQLVESGGGLVKPGGSLKLSCTASGFTFSNYAMSWVRQTPEKRLEWVATISDGGNYTYYPDNVKGRFTISRDIAKNNLYLQMSHLKSEDTAMYYCARDRWPYFFDFWGQGTTLTVSS VL: DIQMTQSPASLSVSVGETVTITCRASDNIYSNLAWYQEKQGKSPQLLVYGATNLADGVPSRFSGSGSGTQYSLKINSLQSEDFGSYYCQHFWTTPRSFGGGTKLELK .
0.046

Entry 9D5 (purified mAb from hybridoma 9D5) (antibody, V domains shown) VH: QVQLQQSGAELARPGASVKFSCKASGYTFTSYWMQWVKQRPGQGLEWIGTIYPGDGNTRYTQKFKGKATLTADKSSSTAYMQLSGLASEDSAVYYCARGYFGNLVFDVWGAGTTVTVSS VL: DIKMTQSPSSMYASLGERVTITCKASQDINTYLSWFLQKPGKSPKTLIYRADRLVDGVPSRFSGGGSGQDYSLTISSLEYEDLGIYYCLQYDEFPYTFGSGTKLEIK please
0.047

Entry 11C5(Hy) (purified mAb from the 11C5 hybridoma) (antibody, V domains shown) VH: EVQLVESGGGLVKPGGSLKLSCAASGFTFSNYAMSWVRQTPEKRLEWVATVTEGGDYNYCLDDVKGRFTISRDNANDNLYLQMSHLKSEDSARYYCARDRWPYFFDYWGQGTTLTVSS VL: DIQMTQSPASLSVSVGETVTITCRASENIYSNLAWYQQKQGRSPQLLVYGAKNLADGVPSRFSGSGSGTQYSLNINSLQSEDFGTYYCQHFWTTPRTFGGGTKLEIK please
0.048
